# Method summary: AUC in C57BL/6 mouse at 10 mg/kg, po
# Assay type: ADME, organism-based
# Design: dose 10 mg/kg, route oral
# Condition: plasma
Measured AUC values are reported for all entries that follow.
Quick note: give the figure in µg·h/mL, leave out the unit.

Some solved cases for reference:
{"Line notation": "Nc1ccc(-c2ccc3ncc4ccc(=O)n(-c5cccc(C(F)(F)F)c5)c4c3c2)cn1", "Scale unit": "µg·h/mL", "Value measured": 4.31}
{"Line notation": "Cc1cc(-n2c(=O)ccc3cnc4ccc(-c5cnn(C)c5)cc4c32)ccc1F", "Scale unit": "µg·h/mL", "Value measured": 2.07}
{"Line notation": "O=c1ccc2cnc3ccc(-c4cn[nH]c4)cc3c2n1-c1ccc(F)c(C(F)(F)F)c1", "Scale unit": "µg·h/mL", "Value measured": 0.755}
{"Line notation": "O=c1ccc2cnc3ccc(-c4cnc5[nH]ccc5c4)cc3c2n1-c1ccc(F)c(C(F)(F)F)c1", "Scale unit": "µg·h/mL", "Value measured": 0.352}

# evaluate next
So what's the measured AUC for this one? Cc1cc(-n2c(=O)ccc3cnc4ccc(-c5cn[nH]c5)cc4c32)ccc1F
2.41

* * *

Items are presented alongside their recorded Tmax.
# Method summary: Tmax in C57BL/6 mouse at 10 mg/kg, po
# Type: ADME, organism-based
# Set-up: dose 10 mg/kg, route oral
# Condition: in vivo
The figure you give is taken to be in min; do not add the unit.

A selection of reference data follows.
{"Line notation": "O=c1ccc2cnc3ccc(-c4cnc5[nH]ccc5c4)cc3c2n1-c1ccc(F)c(C(F)(F)F)c1", "Scale unit": "min", "Tmax": 60}
{"Line notation": "Cc1cc(-n2c(=O)ccc3cnc4ccc(-c5cnn(C)c5)cc4c32)ccc1F", "Scale unit": "min", "Tmax": 30}
{"Line notation": "O=c1ccc2cnc3ccc(-c4cn[nH]c4)cc3c2n1-c1ccc(F)c(C(F)(F)F)c1", "Scale unit": "min", "Tmax": 30}

Now for the compound whose Tmax we want.
Look at this compound and give its reported Tmax. Cc1cc(-n2c(=O)ccc3cnc4ccc(-c5cn[nH]c5)cc4c32)ccc1F
30

* * *

# Method summary: Volume of distribution at steady state in C57BL/6 mouse at 1 mg/kg, iv
# Format: ADME, organism-based
# Design: dose 1 mg/kg, route intravenous
# Condition: in vivo, read-out: Vdss
Measured parameter: Vd
Answer shape: numeric part, then the unit.

Illustrative cases are given below, each with its answer.
{"Line notation": "O=c1ccc2cnc3ccc(-c4cnc5[nH]ccc5c4)cc3c2n1-c1ccc(F)c(C(F)(F)F)c1", "Value measured": "1.3 L/kg"}
{"Line notation": "Cc1cc(-n2c(=O)ccc3cnc4ccc(-c5cn[nH]c5)cc4c32)ccc1F", "Value measured": "1.16 L/kg"}
{"Line notation": "O=c1ccc2cnc3ccc(-c4cn[nH]c4)cc3c2n1-c1ccc(F)c(C(F)(F)F)c1", "Value measured": "2.42 L/kg"}

Give the measured Vd of Cc1cc(-n2c(=O)ccc3cnc4ccc(-c5cnn(C)c5)cc4c32)ccc1F .
1.08 L/kg

* * *

# Tested on: Mus musculus
# Method summary: Bioavailability in C57BL/6 mouse at 10 mg/kg
# Assay type: ADME, organism-based
# Condition: in vivo
Please use criterion met for F under 20% and criterion not met for everything else, ties included.

{"Line notation": "Cc1cc(-n2c(=O)ccc3cnc4ccc(-c5cn[nH]c5)cc4c32)ccc1F", "Qualitative label": "criterion not met"}
{"Line notation": "Nc1ccc(-c2ccc3ncc4ccc(=O)n(-c5cccc(C(F)(F)F)c5)c4c3c2)cn1", "Qualitative label": "criterion not met"}
{"Line notation": "Cc1cc(-n2c(=O)ccc3cnc4ccc(-c5cnn(C)c5)cc4c32)ccc1F", "Qualitative label": "criterion not met"}
{"Line notation": "O=c1ccc2cnc3ccc(-c4cn[nH]c4)cc3c2n1-c1ccc(F)c(C(F)(F)F)c1", "Qualitative label": "criterion met"}

Check if F falls below 20% for O=c1ccc2cnc3ccc(-c4cnc5[nH]ccc5c4)cc3c2n1-c1ccc(F)c(C(F)(F)F)c1 .
criterion met
